# measuredOn: T1, cynomolgus monkey (Macaca fascicularis) transferrin receptor 1 (cynomolgus monkey (Macaca fascicularis), UniProt Q5RDH6 89-760 (Pongo abelii entry), limits assumed)
# T1 construct: Recombinant protein used in ELISA and SPR; also called cTfR1; cyno TfR1
# T1 chain: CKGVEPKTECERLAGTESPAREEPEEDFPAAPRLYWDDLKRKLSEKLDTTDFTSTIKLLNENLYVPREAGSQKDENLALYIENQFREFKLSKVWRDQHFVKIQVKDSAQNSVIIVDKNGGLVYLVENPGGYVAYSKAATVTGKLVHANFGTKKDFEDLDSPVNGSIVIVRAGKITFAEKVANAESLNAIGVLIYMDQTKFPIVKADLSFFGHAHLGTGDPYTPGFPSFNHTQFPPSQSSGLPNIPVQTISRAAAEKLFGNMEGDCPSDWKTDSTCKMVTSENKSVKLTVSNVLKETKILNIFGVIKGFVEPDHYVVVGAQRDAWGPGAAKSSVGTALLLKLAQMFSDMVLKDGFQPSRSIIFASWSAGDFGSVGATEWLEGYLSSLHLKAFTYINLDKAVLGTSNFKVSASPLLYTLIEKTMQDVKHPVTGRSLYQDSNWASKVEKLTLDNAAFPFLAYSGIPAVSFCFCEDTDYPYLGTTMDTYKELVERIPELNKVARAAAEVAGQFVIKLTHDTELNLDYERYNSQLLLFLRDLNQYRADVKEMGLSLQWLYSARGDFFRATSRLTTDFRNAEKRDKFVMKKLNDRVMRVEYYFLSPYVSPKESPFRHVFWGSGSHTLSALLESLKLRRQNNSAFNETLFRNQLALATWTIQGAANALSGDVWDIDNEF
# methodDescription: ELISA, DMPK oligo (ASO300) conjugate binding to cyno TfR1
Listed here are binders together with their documented EC50.
The response must be a number in nM with no trailing unit.

Recorded EC50, per entry:
3M12 (VH4/Vk3) Fab conjugated to DMPK-targeting oligonucleotide ASO300 (Fab, V domains shown, Fab covalently conjugated to ASO300; also called 3M12 (VH4/Vk3) conjugate; DMPK oligo conjugate) VH: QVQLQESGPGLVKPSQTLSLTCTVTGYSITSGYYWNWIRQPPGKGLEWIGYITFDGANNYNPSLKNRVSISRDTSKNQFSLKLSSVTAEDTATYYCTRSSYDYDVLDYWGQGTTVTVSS VL: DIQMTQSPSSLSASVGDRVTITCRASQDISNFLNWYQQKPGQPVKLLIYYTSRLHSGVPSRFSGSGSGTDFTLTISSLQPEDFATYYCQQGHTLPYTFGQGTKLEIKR ... 1.85
5H12 (VH5-C33Y/Vk4) Fab conjugated to DMPK-targeting oligonucleotide ASO300 (Fab, V domains shown, Fab covalently conjugated to ASO300) VH: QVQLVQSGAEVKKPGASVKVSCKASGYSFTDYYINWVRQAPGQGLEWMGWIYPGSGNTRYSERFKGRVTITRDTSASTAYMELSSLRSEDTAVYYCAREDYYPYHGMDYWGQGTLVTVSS VL: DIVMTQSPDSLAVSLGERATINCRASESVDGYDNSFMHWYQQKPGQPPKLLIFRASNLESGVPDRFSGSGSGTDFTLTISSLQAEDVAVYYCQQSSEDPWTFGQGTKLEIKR ... 13.9
5H12 (VH5-C33D/Vk4) Fab conjugated to DMPK-targeting oligonucleotide ASO300 (Fab, V domains shown, Fab covalently conjugated to ASO300; also called 5H12 (VH5-C33D/Vk4) conjugate) VH: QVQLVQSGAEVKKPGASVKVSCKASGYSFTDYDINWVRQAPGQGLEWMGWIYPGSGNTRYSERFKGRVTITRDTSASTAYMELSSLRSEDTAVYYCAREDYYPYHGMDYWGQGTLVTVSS VL: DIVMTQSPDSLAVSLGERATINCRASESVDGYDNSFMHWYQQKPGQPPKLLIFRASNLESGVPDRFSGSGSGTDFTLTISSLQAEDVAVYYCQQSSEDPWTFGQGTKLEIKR ... 10.2
3A4 (VH3-N54S/Vk4) Fab conjugated to DMPK-targeting oligonucleotide ASO300 (Fab, V domains shown, Fab covalently conjugated to ASO300; also called 3A4 (VH3-N54S/Vk4) conjugate) VH: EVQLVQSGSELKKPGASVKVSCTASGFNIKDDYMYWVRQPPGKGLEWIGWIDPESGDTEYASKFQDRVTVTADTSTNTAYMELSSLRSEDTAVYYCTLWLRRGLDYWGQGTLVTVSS VL: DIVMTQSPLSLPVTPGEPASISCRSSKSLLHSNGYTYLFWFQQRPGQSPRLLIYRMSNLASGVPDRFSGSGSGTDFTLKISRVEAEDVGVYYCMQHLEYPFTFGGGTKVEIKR ... 4.1

Here is the next item to consider.
Quickly give me recorded EC50 for 3M12 (VH3/Vk2) Fab conjugated to DMPK-targeting oligonucleotide ASO300 (Fab, V domains shown, Fab covalently conjugated to antisense oligonucleotide ASO300 (linker of Formula (C)); also called 3M12 (VH3/Vk2) conjugate; DMPK oligo conjugate) VH: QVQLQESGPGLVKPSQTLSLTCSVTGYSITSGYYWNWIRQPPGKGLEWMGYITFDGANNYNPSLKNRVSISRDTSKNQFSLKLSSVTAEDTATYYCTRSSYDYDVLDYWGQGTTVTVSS VL: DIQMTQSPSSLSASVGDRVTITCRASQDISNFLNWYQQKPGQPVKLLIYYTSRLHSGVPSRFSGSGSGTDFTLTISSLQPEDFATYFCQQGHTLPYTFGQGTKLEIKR 2.26
